Data origin, for the record: the supplement of paper PMC9732359

protein stability index by entry:
# Protocol Details: protein stability index of a GFP-peptide fusion (yeast GPS) (PSI 1-4); higher = more stable; sorted into four equal gates, so the index is relative within each strain
# Cond: san1∆

# Biosequence, protein stability index
records = [
    ("NIEEMARVILYLKNVLF [SIN4]", 2.01),
    ("KLPLLNESLIPLINLAL [YML103C/NUP188]", 1.73),
    ("PVKLDENSANSTVASAL [SIR4]", 2.76),
    ("SSNPNSSLHSPTSDEPV [SRB4]", 2.99),
    ("GVNGYIWLRKTSQMDLA [RRP4]", 3.07),
    ("ASKVLLKIFLYLESLFA [IRR1]", 2.02),
    ("FSEEKAEEFDFNVPVVS [YAR002W/NUP60]", 1.3),
    ("QLQQQPQMQCALQNLSQ [YGL172W/NUP49]", 2.42),
    ("SKYYPGVIIKVEESGEH [SNU114]", 2.28),
    ("VSFRTHNSHLSLNYKFT [SRP21]", 3),
    ("KEDADLKRMEILKSPHL [SIR4]", 2.99),
    ("AKFFLNVSDEQLSNWQK [ITC1]", 3.18),
    ("EEQKIVKKVVKEQTEAA [RPL34A]", 3.27),
    ("NDLEVGVATKDKFFTLS [SCL1]", 3.08),
]
